FYI, the data here is from PubChem BioAssay (NCI).

Tested on: OVCAR-5 ovarian
method.description: NCI-60 one-dose screen, 48 h (100 = growth as untreated, 0 = no growth, -100 = all killed)
assay.conditions: 10 µM unless noted
About 83,000 compounds went through this panel and 20% of them were active in at least one assay; those are over-represented in the sample as a whole.
measurement.kind: growth (%)

>>> experimental_result("O=C(/C=C/C12c3ccccc3C(c3ccccc31)C1C(=O)NC(=O)C12)c1ccccc1 (stereo not given)")
26.4
>>> experimental_result("CN1C[C@@H](c2ccc(Cl)cc2)[C@]2(NC(=S)N(c3ccccc3)C2=O)[C@@]12C(=O)NC1C=CC(Br)=C[C@H]12 (stereo not given in full)")
101
>>> experimental_result("O=C1C=CC(=Nc2cc(Br)c(O)c(Br)c2)C=C1")
94.7
>>> experimental_result("CCOc1ccc(S(=O)(=O)c2ccc(C)cc2)c2c1no[n+]2[O-]")
99.1
>>> experimental_result("Nc1c(C(=O)c2ccccc2)nnc2ncnn12")
121
>>> experimental_result("CCn1nc(C#Cc2c(C)ccc3c(Nc4ccc(Cl)cc4)nccc23)c2c(N)ncnc21")
25.1
>>> experimental_result("CCN(CC)N=Nc1nn(C(=O)Nc2ccc(Cc3ccccc3)cc2)c2ccc(Cl)cc12")
87.7
>>> experimental_result("C=C(C)C1CCC(=C)C2CCC3(C)OC12/C=C(/COC(C)=O)CCC3O (stereo not given)")
105
>>> experimental_result("CCN(CCO)CC(=O)c1cc(Cl)cc(Cl)c1Cl")
109
>>> experimental_result("NS(=O)(=O)c1cn(-c2ncnc3nc[nH]c23)ccc1=O")
93.1
